Examples of molecules with documented DC50 follow.
subject-of-test: KRAS G12V (Homo sapiens (Human), UniProt P01116, G12V)
Sequence (P01116-2 other isoform, or with tags, fused parts or gaps G12V): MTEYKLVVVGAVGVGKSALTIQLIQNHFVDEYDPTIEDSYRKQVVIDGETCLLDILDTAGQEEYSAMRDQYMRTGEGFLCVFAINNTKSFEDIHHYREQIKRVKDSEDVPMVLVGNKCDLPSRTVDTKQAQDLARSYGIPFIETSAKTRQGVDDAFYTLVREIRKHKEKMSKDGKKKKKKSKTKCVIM
procedure-summary: KRAS G12V degradation in SW620 cells (Western blot, DC50)
Format: cell-based
recorded-conditions: 24 hours

These solved cases illustrate the format of a correct answer.
{"molecule": "CCc1c(F)ccc2cc(O)cc(-c3ncc4c(N5CCC[C@@](C)(O)C5)nc(OCC5(CN6CCC(N7CC8(CCN(c9ccc%10c(c9)CN(C9CCC(=O)NC9=O)C%10=O)CC8)C7)CC6)CC5)nc4c3F)c12 (stereo partly shown)", "measurement-type": "DC50", "endpoint-value": "< 1 nM"}
{"molecule": "CCc1c(F)ccc2cc(O)cc(-c3ncc4c(N5CCC[C@@](C)(O)C5)nc(OCC5(CN6CCC(OC7CC8(CCN(c9ccc%10c(c9)CN(C9CCC(=O)NC9=O)C%10=O)CC8)C7)CC6)CC5)nc4c3F)c12 (stereo partly shown)", "measurement-type": "DC50", "endpoint-value": "< 1 nM"}
{"molecule": "CCc1c(F)ccc2cc(O)cc(-c3ncc4c(N5CCC[C@@](C)(O)C5)nc(OCC5(CN6CCC7(CCC(N8CCN(c9cc(F)c(C%10CCC(=O)NC%10=O)c(F)c9)CC8)CC7)CC6)CC5)nc4c3F)c12 (stereo partly shown)", "measurement-type": "DC50", "endpoint-value": "1 to 10 nM"}

Switching to the query record.
Need DC50, item CCc1c(F)ccc2cc(O)cc(-c3ncc4c(N5CCC[C@@](C)(O)C5)nc(OCC5(CN6CCC7(CC6)CC(F)(CN6CCN(c8ccc(C(=O)N[C@H]9CCC(=O)NC9=O)c(F)c8)CC6)C7)CC5)nc4c3F)c12
> 100 nM

---

Examples of compounds with documented GI50 follow.
Tested on: SW620 cells
procedure-summary: 3D cell growth inhibition of SW620 cells carrying endogenous KRAS G12V mutation (CellTiter-Glo 3D, GI50)
Assay type: cell-based
recorded-conditions: Homo sapiens, SW-620, 144 h, read-out: SW620 3D cell growth GI50

These solved cases illustrate the format of a correct answer.
{"compound": "CCc1c(F)ccc2cc(O)cc(-c3ncc4c(N5CCC[C@@](C)(O)C5)nc(OCC5(CN6CCC7(CCC(N8CCN(c9cc(F)c(C%10CCC(=O)NC%10=O)c(F)c9)CC8)CC7)CC6)CC5)nc4c3F)c12 (some centres unmarked) [Compound 51]", "GI50": "< 0.01 µM"}
{"compound": "CCc1c(F)ccc2cc(O)cc(-c3ncc4c(N5CCC[C@@](C)(O)C5)nc(OCC5(CN6CCN(CC7CN(c8ccc9c(c8)CN(C8CCC(=O)NC8=O)C9=O)C7)CC6)CC5)nc4c3F)c12 (some centres unmarked) [Compound 133]", "GI50": "< 0.01 µM"}
{"compound": "CCc1c(F)ccc2cc(O)cc(-c3ncc4c(N5CCC[C@@](C)(O)C5)nc(OCC5(CN6CCC7(CCN(CCc8cc(F)c(C9CCC(=O)NC9=O)c(F)c8)CC7)CC6)CC5)nc4c3F)c12 (some centres unmarked) [Compound 56]", "GI50": "< 0.01 µM"}
{"compound": "CCc1c(F)ccc2cc(O)cc(-c3ncc4c(N5CCC[C@@](C)(O)C5)nc(OCC5(CN6CCC7(CC6)CN(CC6CCN(c8ccc9c(c8)CN(C8CCC(=O)NC8=O)C9=O)CC6)C7)CC5)nc4c3F)c12 (some centres unmarked) [Compound 131]", "GI50": "< 0.01 µM"}

Field: GI50 (SW620 cells). Entry: CCc1c(F)ccc2cc(O)cc(-c3ncc4c(N5CCCOC6CC65)nc(OCC5(CN6CCC7(CC6)CC(CN6CCN(c8ccc9c(c8)CN([C@H]8CCC(=O)NC8=O)C9=O)CC6)C7)CC5)nc4c3F)c12 (some centres unmarked) [Compound 165]
0.01 to 0.1 µM

---

subject-of-test: KRAS-G12V/RAF1 (Homo sapiens (Human), UniProt P01116, G12V)
Sequence (P01116-2 other isoform, or with tags, fused parts or gaps G12V): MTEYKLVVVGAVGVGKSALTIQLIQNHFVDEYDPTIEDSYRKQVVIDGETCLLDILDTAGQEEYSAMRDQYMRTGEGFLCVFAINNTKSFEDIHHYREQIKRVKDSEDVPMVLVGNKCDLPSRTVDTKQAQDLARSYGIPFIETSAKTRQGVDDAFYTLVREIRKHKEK
procedure-summary: KRAS/RAF1 binding inhibition assay (AlphaScreen)
pIC50: −log10 of the molar value.
measurement-type: pIC50

These solved cases illustrate the format of a correct answer.
{"compound": "CCc1cccc2cc(O)cc(-c3ncc4c(N5C[C@@H]6C[C@H](C5)[C@H](O)C6)nc(OCC5(CN6CCC7(CC6)CC(CN6CCN(c8ccc9c(c8)CN([C@H]8CCC(=O)NC8=O)C9=O)CC6)C7)CC5)nc4c3F)c12", "measurement-type": "pIC50", "endpoint-value": "< 6.70"}
{"compound": "CCc1c(F)ccc2cc(O)cc(-c3ncc4c(N5CCC[C@@](C)(O)C5)nc(OCC5(CN6CCC7(CC6)CN(CC6CCN(c8ccc9c(c8)CN(C8CCC(=O)NC8=O)C9=O)CC6)C7)CC5)nc4c3F)c12 (stereo partly shown)", "measurement-type": "pIC50", "endpoint-value": "> 7.70"}
{"compound": "CCc1c(F)ccc2cc(O)cc(-c3ncc4c(N5CCC[C@@](C)(O)C5)nc(OCC5(CN6CCC7(CC6)CCN(C6CN(c8ccc9c(c8)CN(C8CCC(=O)NC8=O)C9=O)C6)CC7)CC5)nc4c3F)c12 (stereo partly shown)", "measurement-type": "pIC50", "endpoint-value": "6.70 to 7.70"}

Need pIC50, item CCc1c(F)ccc2cc(O)cc(-c3ncc4c(N5CCCC6(CC(O)C6)C5)nc(OCC5(CN6CCC(CN7CCN(c8ccc9c(c8)CN([C@H]8CCC(=O)NC8=O)C9=O)CC7)CC6)CC5)nc4c3F)c12 (stereo partly shown)
< 6.70

---

subject-of-test: KRAS-G12V/RAF1 (Homo sapiens (Human), UniProt P01116, G12V)
procedure-summary: KRAS/RAF1 binding inhibition assay (AlphaScreen)
measurement-type: IC50

These solved cases illustrate the format of a correct answer.
{"molecule": "CCc1cccc2cc(O)cc(-c3ncc4c(N5CCC[C@@](C)(O)C5)nc(OCC5(CN6CC7(CCN(c8ccc9c(c8)CN(C8CCC(=O)NC8=O)C9=O)CC7)C6)CC5)nc4c3F)c12 (some centres unmarked)", "endpoint-value": "20 to 200 nM"}
{"molecule": "CCc1c(F)ccc2cc(O)cc(-c3ncc4c(N5CCC[C@@](C)(O)C5)nc(OCC5(CN6CCC(N7CC8(CN(c9ccc%10c(c9)CN(C9CCC(=O)NC9=O)C%10=O)C8)C7)CC6)CC5)nc4c3F)c12 (some centres unmarked)", "endpoint-value": "< 20 nM"}

Need IC50, item CCc1c(F)ccc2cc(O)cc(-c3ncc4c(N5C[C@@H]6C[C@H](C5)[C@H](O)C6)nc(OCC5(CN6CCC7(CC6)CC(CN6CCN(c8ccc9c(c8)CN([C@H]8CCC(=O)NC8=O)C9=O)CC6)C7)CC5)nc4c3F)c12
> 200 nM

Need IC50, item CCc1c(F)ccc2cc(O)cc(-c3ncc4c(N5CCC[C@@](C)(O)C5)nc(OCC5(CN6CCC(C)(CN7CCN(c8ccc9c(c8)CN([C@@H]8CCC(=O)NC8=O)C9=O)CC7)CC6)CC5)nc4c3F)c12
20 to 200 nM

Need IC50, item C[C@@]1(O)CCCN(c2nc(OCC3(CN4CCC5(CC4)CC(F)(CN4CCN(c6ccc7c(c6)CN([C@H]6CCC(=O)NC6=O)C7=O)CC4)C5)CC3)nc3c(F)c(-c4cc(O)cc5ccc(F)c(F)c45)ncc23)C1
20 to 200 nM

---

subject-of-test: KRAS G12V (Homo sapiens (Human), UniProt P01116, G12V)
procedure-summary: KRAS G12V degradation in SW620 cells (Western blot, DC50)
Type: cell-based
recorded-conditions: 24 hours
measurement-type: DC50

These solved cases illustrate the format of a correct answer.
{"molecule": "CCc1c(F)ccc2cc(O)cc(-c3ncc4c(N5CCC[C@@](C)(O)C5)nc(OCC5(CN6CCC(N7CC(CN8CCN(c9ccc(C%10CCC(=O)NC%10=O)cc9)CC8)C7)CC6)CC5)nc4c3F)c12 (some centres unmarked) [Compound 21]", "DC50": "> 100 nM"}
{"molecule": "CCc1c(F)ccc2cc(O)cc(-c3ncc4c(N5CCC[C@@](C)(O)C5)nc(OCC5(CN6CCC(N7CCC8(CCN(c9ccc%10c(c9)CN(C9CCC(=O)NC9=O)C%10=O)CC8)CC7)CC6)CC5)nc4c3F)c12 (some centres unmarked) [Compound 145]", "DC50": "1 to 10 nM"}
{"molecule": "CCc1c(F)ccc2cc(O)cc(-c3ncc4c(N5CCC[C@@](C)(O)C5)nc(OCC5(CN6CCC(N7CC8(CN(c9ccc%10c(c9)CN(C9CCC(=O)NC9=O)C%10=O)C8)C7)CC6)CC5)nc4c3F)c12 (some centres unmarked) [Compound 154]", "DC50": "< 1 nM"}
{"molecule": "CCc1cccc2cc(O)cc(-c3ncc4c(N5CCC[C@@](C)(O)C5)nc(OCC5(CN6CC7(CCN(c8ccc9c(c8)CN(C8CCC(=O)NC8=O)C9=O)CC7)C6)CC5)nc4c3F)c12 (some centres unmarked) [Compound 16]", "DC50": "> 100 nM"}

Switching to the query record.
Need DC50, item CCc1c(F)ccc2cc(O)cc(-c3ncc4c(N5CCOC[C@](C)(O)C5)nc(OCC5(CN6CCC(CN7CCN(c8ccc9c(c8)CN([C@H]8CCC(=O)NC8=O)C9=O)CC7)CC6)CC5)nc4c3F)c12 [Compound 112]
> 100 nM
